Value source: ChEMBL document CHEMBL5154666

test: Inhibition of Cy3-labeled mouse preE-let-7f-1 miRNA binding to human LIN28A (16 to 187 residues) expressed in Escherichia coli BL21 (DE3) at 75 uM preincubated for 2 hrs followed by miRNA addition and measured after 15 mins by electrophoretic mobility shift assay relative to control
OBSERVED_PROPERTY: inhibition

Sample answers from the record:
| COMPOUND_STRUCTURE | inhibition |
| --- | --- |
| CCOc1cccc2c1N[C@@H](c1ccc([N+](=O)[O-])cc1)[C@H]1CC=C[C@@H]21 | < 5% |
| CCOc1cccc2c1N[C@@H](c1cccc(C(=O)O)c1)[C@H]1CC=C[C@@H]21 | 86% |
| O=C(O)c1ccc([C@@H]2Nc3c(Cl)cc(Cl)cc3[C@@H]3C=CC[C@@H]32)cc1 | 34% |
| CC(C)Oc1cccc2c1N[C@@H](c1ccc(C(=O)O)cc1)[C@H]1CC=C[C@@H]21 | < 5% |
| COc1cccc2c1N[C@@H](c1ccc(C(=O)O)cc1)[C@H]1CC=C[C@@H]21 | < 5% |

Indicate its recorded inhibition; the compound in question is CCOc1cccc2c1N[C@@H](c1ccc(C(=O)OC)cc1)[C@H]1CC=C[C@@H]21
< 5%

Provide only the value of recorded inhibition for CCOC(=O)[C@@H]1Nc2c(OCC)cccc2[C@@H]2C=CC[C@H]12
< 5%
